Sourced from paper PMC7591920

Measured IC50 values are reported for all entries that follow.
# systemName: T1, mouse TEAD4(210-427) (mouse, UniProt Q62296 210-427)
# T1 construct: mouse TEAD4, residues 210-427; The tag was cleaved with 3C protease only for the crystallisation; nothing is said for SPR and FP; also called mTEAD4; source: E. coli BL21 DE3 RIL, purified (His Trap, SEC)
# T1 sequence (Q62296 210-427): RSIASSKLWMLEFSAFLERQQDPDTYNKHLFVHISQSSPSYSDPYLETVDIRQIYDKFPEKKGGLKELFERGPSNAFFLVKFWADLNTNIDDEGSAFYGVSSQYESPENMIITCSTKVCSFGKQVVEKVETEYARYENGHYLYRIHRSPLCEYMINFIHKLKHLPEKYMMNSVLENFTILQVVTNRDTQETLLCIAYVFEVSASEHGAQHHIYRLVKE
# measurementDescription: fluorescence polarisation; competition: acetylated peptide titrated (50 µM-6 pM) against mTEAD4 (400 nM) with a FITC-labelled tracer peptide (10 nM; tracer not named); read after 1 h
# conditionContext: both partners purified
Bridge positions count the residues as written; N and C are the ends. Ends that are not written are not given here.

Here's what some known entries look like.
[[record]]
binder = "Ac-SVEDAFAKALGDTWLQIKAA (lactam 3-18, macrocyclic VGL4 two-helix motif 4E with one alanine; numbers count on: mouse VGL4 as in PDB 4LN0; Synthesised on Rink amide resin: C-terminal amide surmised; source: synthetic peptide) [peptide 17 (alanine scan of 4E), acetylated]"
result = "> 100 µM"

[[record]]
binder = "Ac-SVEDHFAKAAGDTWLQIKAA (lactam 3-18, macrocyclic VGL4 two-helix motif 4E with one alanine; numbers count on: mouse VGL4 as in PDB 4LN0; Synthesised on Rink amide resin: C-terminal amide surmised; source: synthetic peptide) [peptide 20 (alanine scan of 4E), acetylated]"
result = "> 100 µM"

[[record]]
binder = "Ac-SVEDHAAKALGDTWLQIKAA (lactam 3-18, macrocyclic VGL4 two-helix motif 4E with one alanine; numbers count on: mouse VGL4 as in PDB 4LN0; Synthesised on Rink amide resin: C-terminal amide surmised; source: synthetic peptide) [peptide 18 (alanine scan of 4E), acetylated]"
result = "> 50 µM"


## Input Any idea what its IC50 is? The binder is Ac-SVEDHFAKALGATWLQIKAA (lactam 3-18, macrocyclic VGL4 two-helix motif 4E with one alanine; numbers count on: mouse VGL4 as in PDB 4LN0; Synthesised on Rink amide resin: C-terminal amide surmised; source: synthetic peptide) [peptide 21 (alanine scan of 4E), acetylated]
## Output > 100 µM
